- TARGET_OR_TEST_SYSTEM: RARγ (Homo sapiens)
- Sequence (P13631 185-419 limits assumed): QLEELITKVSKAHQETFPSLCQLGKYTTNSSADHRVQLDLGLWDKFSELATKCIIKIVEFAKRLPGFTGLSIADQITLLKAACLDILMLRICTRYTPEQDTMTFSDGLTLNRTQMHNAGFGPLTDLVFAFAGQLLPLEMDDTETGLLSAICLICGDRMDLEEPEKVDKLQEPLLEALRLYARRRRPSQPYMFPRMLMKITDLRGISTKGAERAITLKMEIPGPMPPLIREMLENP
- PROTOCOL_DETAILS: PGA-RAR antagonist assay (glucocorticoid-retinoid chimeric receptors)
- Format: cell-based
- Parameters: RAR IC50 (nM) γ; other: in the presence of 1 nM all-trans retinoic acid; fused on or other part: Glucocorticoid receptor DNA-recognition part in place of RAR's own
- CONDITION_INFO: in the presence of 1 nM all-trans retinoic acid; read-out: RAR IC50 (nM) γ
Class boundaries, taken from values of IC50, are as follows: lo (below 5 nM), mid (5 nM to below 50 nM), hi (50 nM or more)

[
  {
    "COMPOUND": "Cc1ccc(C2=CC(C)(C)c3cc(C(/C=C/c4ccc(C(=O)O)cc4)=N\\O)ccc32)cc1 [Compound 16b]",
    "LABEL": "hi"
  },
  {
    "COMPOUND": "Cc1ccc(C2=CC(C)(C)c3cc(C(/C=C/c4ccc(C(=O)O)cc4F)=N/O)ccc32)cc1 [Compound 18a]",
    "LABEL": "hi"
  },
  {
    "COMPOUND": "Cc1ccc(C2=CC(C)(C)c3cc(C(/C=C/c4ccc(C(=O)O)cc4)=N/O)ccc32)cc1 [Compound 16a]",
    "LABEL": "mid"
  },
  {
    "COMPOUND": "Cc1ccc(C2=CC(C)(C)c3cc(C(/C=C/c4ccc(C(=O)O)cc4F)=N\\O)ccc32)cc1 [Compound 18b]",
    "LABEL": "hi"
  },
  {
    "COMPOUND": "Cc1ccc(C2=CCC(C)(C)c3cc(C(/C=C/c4ccc(C(=O)O)cc4)=N\\O)ccc32)cc1 [Compound 7b]",
    "LABEL": "mid"
  },
  {
    "COMPOUND": "Cc1ccc(C2=CCC(C)(C)c3cc(C(/C=C/c4ccc(C(=O)O)cc4)=NO)ccc32)cc1 (racemic) [Compound 7c]",
    "LABEL": "lo"
  },
  {
    "COMPOUND": "Cc1ccc(C2=CCC(C)(C)c3cc(C(/C=C/c4ccc(C(=O)O)cc4)=N/O)ccc32)cc1 [Compound 7a]",
    "LABEL": "lo"
  },
  {
    "COMPOUND": "Cc1ccc(C2=CCC(C)(C)c3cc(C(/C=C/c4ccc(C(=O)O)cc4F)=N\\O)ccc32)cc1 [Compound 9b]",
    "LABEL": "mid"
  }
]
